Reported values of VEGF-E-mediated Survival % Inhibition (n = 1) for individual entries
- Target desc: KDR endogenously expressed on human umbilical vein endothelial cells (HUVEC) (human, UniProt P35968 20-1356); also: test concentration or dose not given here
- Sequence (P35968 20-1356): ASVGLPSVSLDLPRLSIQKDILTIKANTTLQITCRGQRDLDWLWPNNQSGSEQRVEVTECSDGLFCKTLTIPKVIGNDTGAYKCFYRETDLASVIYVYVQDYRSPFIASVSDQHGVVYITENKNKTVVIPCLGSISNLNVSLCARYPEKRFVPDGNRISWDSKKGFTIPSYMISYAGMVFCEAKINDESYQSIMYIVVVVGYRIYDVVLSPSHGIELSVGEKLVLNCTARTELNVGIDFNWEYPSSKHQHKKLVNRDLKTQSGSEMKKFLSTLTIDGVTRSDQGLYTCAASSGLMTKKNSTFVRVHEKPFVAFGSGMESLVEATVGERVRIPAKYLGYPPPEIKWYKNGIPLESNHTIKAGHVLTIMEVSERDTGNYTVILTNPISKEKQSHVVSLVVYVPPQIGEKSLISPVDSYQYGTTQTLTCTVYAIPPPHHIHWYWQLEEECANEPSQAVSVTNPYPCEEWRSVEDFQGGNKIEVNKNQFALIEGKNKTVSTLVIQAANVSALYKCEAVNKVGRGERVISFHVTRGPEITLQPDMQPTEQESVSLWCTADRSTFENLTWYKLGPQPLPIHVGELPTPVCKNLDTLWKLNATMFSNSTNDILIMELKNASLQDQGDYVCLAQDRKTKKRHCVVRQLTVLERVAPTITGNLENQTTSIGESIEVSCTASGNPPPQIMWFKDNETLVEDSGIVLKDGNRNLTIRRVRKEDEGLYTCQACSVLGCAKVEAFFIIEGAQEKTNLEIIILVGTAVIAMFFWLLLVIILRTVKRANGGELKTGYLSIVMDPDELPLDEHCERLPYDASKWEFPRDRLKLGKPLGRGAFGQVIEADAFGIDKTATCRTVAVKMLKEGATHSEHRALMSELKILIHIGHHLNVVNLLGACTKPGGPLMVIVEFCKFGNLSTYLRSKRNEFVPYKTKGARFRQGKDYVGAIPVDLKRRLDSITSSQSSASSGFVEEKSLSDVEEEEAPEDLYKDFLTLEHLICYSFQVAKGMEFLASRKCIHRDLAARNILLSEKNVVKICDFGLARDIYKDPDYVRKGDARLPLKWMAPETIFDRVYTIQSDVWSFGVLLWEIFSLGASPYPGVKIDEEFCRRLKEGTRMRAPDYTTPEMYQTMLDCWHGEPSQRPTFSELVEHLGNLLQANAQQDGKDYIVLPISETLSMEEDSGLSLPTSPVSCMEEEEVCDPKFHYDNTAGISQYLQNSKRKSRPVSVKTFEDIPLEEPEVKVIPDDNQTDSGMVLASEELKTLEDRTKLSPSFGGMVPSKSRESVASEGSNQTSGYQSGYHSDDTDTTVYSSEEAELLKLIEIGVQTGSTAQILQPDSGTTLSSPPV
- Assay procedure: cell-based or functional assay
Observable: VEGF-E-mediated Survival % Inhibition (n = 1) (%)

| Binder | Reported value |
| --- | --- |
| 29A3 (antibody, V domains shown, Fully human mAb from XenoMouse hybridoma, tested as hybridoma supernatant) VH: QVQLQESGPGLVKPSETLSLTCTVSGGSISSYFWSWIRQPAGKGLEWIGRIYFSGRTNYNPSLKSRVTMSVETSKNQFSLKLNSVTAADTAVYYCARDGGWNYDVAFDYWGQGTLVTVSS VL: QAVLTQPSSLSASPGASASLTCTLRSGINVGTYRIYWYQQKPGSPPQYLLRYKSDSDQLQGSGVPSRFSGSKDASANAGILLISGLQSEDEADYYCMVWHSNTWVFGGGTKLTVL | -1 |
| 22B8 (antibody, V domains shown, Fully human mAb from XenoMouse hybridoma, tested as hybridoma supernatant) VH: QLQLQESGPGLVKPSETLSLTCTVSGGSISSRYYYWGWVRQPPGKGLEWIGTIYYSGHTYYNPSLKTRVTISVDTSKNQFSLKLISVTAADTAVYYCATQQLVLYYFDFWGQGTLVTVSS VL: EIVLTQSPGTLSLSPGERAALSCRASQSISSSYLAWYQQRPGQAPRLLIYGASSRATGIPDRFNGSGSGTDFTLTISRLEPEDFAVYYCQQFGSSITFGQGTRLEIK | 57 |
| 27A3 (antibody, V domains shown, Fully human mAb from XenoMouse hybridoma, tested as hybridoma supernatant) VH: QLQLQESGPGLVKPSETLSLTCTVSGGSISSRSDYWGWIRQPPGKGLEWIGTIYYSGDTYYNPSLKSRVTISVDTSKNQFSLKLSSVTAADTAVYYCARQQLVLYYFDYWGQGTLVTVSS VL: EIVLTQSPGTLSLSPGERATLSCRASQSVSSSYLAWYQQKPGQAPRLLIYATSNRATGIPDRFSGSGSGTDFTLTISRLEPEDFAVYYCQQHGSSPPLTFGGGTKVEIK | 63 |
